Listing of entries alongside the reported EC50.
- assay_system: human LPAR1 (Homo sapiens, UniProt Q92633)
- Construct: host or cells: CHO-K1
- Sequence (Q92633 whole entry): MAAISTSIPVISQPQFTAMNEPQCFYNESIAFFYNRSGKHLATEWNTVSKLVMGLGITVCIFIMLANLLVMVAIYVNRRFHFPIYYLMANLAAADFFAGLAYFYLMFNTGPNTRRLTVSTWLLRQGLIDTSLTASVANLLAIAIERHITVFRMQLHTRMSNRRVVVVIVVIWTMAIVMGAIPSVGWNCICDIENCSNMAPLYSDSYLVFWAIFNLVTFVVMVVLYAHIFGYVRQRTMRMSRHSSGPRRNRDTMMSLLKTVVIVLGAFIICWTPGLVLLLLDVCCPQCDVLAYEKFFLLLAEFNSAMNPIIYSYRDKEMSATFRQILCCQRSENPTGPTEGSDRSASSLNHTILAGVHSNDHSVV
- test: LPAR1 intracellular calcium mobilization assay (antagonist mode)
- Assay type: cell-based
- conditions_used: CHO-K1 EDG2 cells expressing human LPAR1; 60 min pre-incubation with compound (0.5 nM to 10 μM), then LPA 18:2 challenge; FLIPR Tetra calcium signal
# output: bare number, implied unit nM

Before answering, review these 6 worked examples.
{"structure_string": "C[C@@H](OC(=O)Nc1c(-c2ncc(OS(C)(=O)=O)cc2F)cnn1C)c1cc(F)cnc1F", "readout_unit": "nM", "EC50": 74}
{"structure_string": "C[C@@H](OC(=O)Nc1c(-c2ccc(NS(C)(=O)=O)cn2)cnn1C)c1cccnc1Cl", "readout_unit": "nM", "EC50": 216}
{"structure_string": "C[C@@H](OC(=O)Nc1c(-c2ncc(NC(=O)c3ccc(Cl)nc3)cn2)cnn1C)c1cc(F)cnc1F", "readout_unit": "nM", "EC50": 20.6}
{"structure_string": "C[C@@H](OC(=O)Nc1c(-c2ncc(NC(=O)C3(C(F)F)CC3)cn2)cnn1C)c1cc(F)cnc1Cl", "readout_unit": "nM", "EC50": 60.5}
{"structure_string": "C[C@@H](OC(=O)Nc1c(-c2ncc(OS(C)(=O)=O)cn2)cnn1C)c1cc(F)cnc1Cl", "readout_unit": "nM", "EC50": 14.1}
{"structure_string": "C[C@@H](OC(=O)Nc1c(-c2ccc(NS(C)(=O)=O)cc2)cnn1C)c1ccccc1Cl", "readout_unit": "nM", "EC50": 11.7}

Turning to the following compound.
Qu. GET /values?readout=EC50&item= C[C@@H](OC(=O)Nc1c(-c2ncc(NC(=O)C3CC(F)(F)C3)cn2)cnn1C)c1cc(F)cnc1F
Ans. 18.6
